Data origin, for the record: the supplement of paper PMC9170038

System: MS2 coat protein
Assay: apparent KD of MS2 coat protein; higher = weaker reporter binding
Details: Eterna round: R107; input ligand: tryptophan 2.4 mM
READOUT: apparent KD of MS2 coat protein (µM)

{"SEQ STRING": "CGGGCCGCUGCGGAUACCAGUUGAGCAUAGGUAGUGUAUGACAUGAGGAUCACCCAUGUUAACCCUUGGCAGCCGAGAGGGCAGA [theeternabot_exclusion_MS2_Theo_B_13]", "READOUT": "apparent KD of MS2 coat protein", "REPORTED VALUE": 0.0102}
{"SEQ STRING": "CUCUGAGUGAGGAAUCACUCAGAGGCGGAUACCAGCGAGGUCCAUCGCCCUUGGCAGCCGAACAUGAGGAUCACCCAUGUCGGUA [#1 Same State - Theophylline A Attempt #23 (HarryS)]", "READOUT": "apparent KD of MS2 coat protein", "REPORTED VALUE": 0.0093}
{"SEQ STRING": "AACAUGAGGAUCACCCAUGUCUGAACUGAAGGAGCGCUAAAUAAGGCAGGUAGGUCGCGGAAUUUUGUAUAUAUAUAUAUAUGGG [9.F]", "READOUT": "apparent KD of MS2 coat protein", "REPORTED VALUE": 0.0203}
{"SEQ STRING": "CCUCAUGUGUAUCACCACAUGAGUGGUGAUACCAGCAUCGAAAGAUGCCCUUGGCAGCACCAACAUGAGGAUCACCCAUGUAAUA [(M)'-(T)'-(M)''-(T1)-(T2)-(M1)-(M2)_Design2]", "READOUT": "apparent KD of MS2 coat protein", "REPORTED VALUE": 0.287}
{"SEQ STRING": "ACUAGUUGUGCAGAUACCAGACACGAGGAUCACCCGUGUUUGGGAUGUUCGCAUCUUCCUGUCCCUUGGCAGCUGUACAUCUAGA [Omei Theo B Exc v8]", "READOUT": "apparent KD of MS2 coat protein", "REPORTED VALUE": 0.017}

----------
# key: entry, value: apparent KD of MS2 coat protein
System: MS2 coat protein
Test: apparent KD of MS2 coat protein; designed switch direction (-1 OFF switch, 1 ON switch): -1; higher = weaker reporter binding
Details: Eterna round: R95; input ligand: none

{"SEQ STRING": "GAUUAUGCGAGCUUUAGGGACAUGAGGAUCACCCAUGUUCGUCUUAUUGGUCUAGGUACGCUAACAUACCUAAAUCU [JMF 4] (puzzle: Sensor v3, turn-off variant 1)", "apparent KD of MS2 coat protein (nM)": 23.4}
{"SEQ STRING": "AGUACUAUGCGAGCUGACUUGCGUAGUGCAGCAGGUGGAACAUGAGGAUCACCCAUGUCCUCAUUUGCUCGUCUUAU [Mat - Sensor v3 - Turn-off var 2 - D4] (puzzle: Sensor v3, turn-off variant 2)", "apparent KD of MS2 coat protein (nM)": 26.8}
{"SEQ STRING": "AAGUAUAGAGGAUAUAGUGAGUACUACAUGAGGAUCACCCAUGUUCUUCGAAACGUAUUUCUAGAAGGCUGAUAAA [EX-5 Malc#22] (puzzle: Exclusion 5)", "apparent KD of MS2 coat protein (nM)": 29.2}
{"SEQ STRING": "GCAGUGCGAGGAUAUACAUGAGGAUCACCCAUGUGAGAAUAAUAAGUGAGGAAGAAAAGUAGAAGGCGCGUUGG [Mat - Exclusion 3 - Mod of Salish D67] (puzzle: Exclusion 3)", "apparent KD of MS2 coat protein (nM)": 46.8}
{"SEQ STRING": "UAGGUGUGAGGAUAUGGUAAAGAUAAGAUGAUAAAAGAACUCCAGAAGGCACAUGAGGAUCACCCAUGUAGAUG [Mat - Exclusion 4 - Mod of JL - D34] (puzzle: Exclusion 4)", "apparent KD of MS2 coat protein (nM)": 25.8}

----------
Tested on: K4 kissing-loop RNA reporter;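 note: bound reporter read as fluorescence of individual clusters on recovered sequencing chips by microscopy, with normalized cluster intensities fitted with a binding model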
Experiment: apparent KD of K4 kissing-loop reporter; higher = weaker reporter binding
Details: Eterna round: R107; input ligand: arginine 13.2 mM
READOUT: apparent KD of K4 kissing-loop reporter

{"SEQ STRING": "GCGAACAUUCGCAGUGAUGUUGCGACGGAAGGAGCGCGUGAAAACGCAGGUAGGUCGCCGACAAAAUUAAUUUUAAUGUGUUCGC [Arginine A K4 27]", "READOUT": "apparent KD of K4 kissing-loop reporter", "REPORTED VALUE": "0.44 µM"}
{"SEQ STRING": "AACGUAGCUACUGAUACCAGACUUUUUCUUGUAUAUUAGUCAAGUGAUGUUUGACUUUUAGUCCCUUGGCAGCAGUUGCUACGAA [JR_Nu_SSTheophyB_Sub028]", "READOUT": "apparent KD of K4 kissing-loop reporter", "REPORTED VALUE": "0.0843 µM"}
{"SEQ STRING": "GGUAGCAUGGCGGCCGCCACUGCAAAGCAUAGCUACGGAAACGUAGCUACAGAGUGAUGUUCUGGCAGGACCGGGCCAUGCUACC", "READOUT": "apparent KD of K4 kissing-loop reporter", "REPORTED VALUE": "0.487 µM"}

----------
System: MS2 coat protein
Test: apparent KD of MS2 coat protein; designed switch direction (-1 OFF switch, 1 ON switch): -1; higher = weaker reporter binding
Conditions: input ligand: FMN 200 uM

{"SEQ STRING": "AGCAAGCUUUUAAGAUCCUACAUGAGGAUCACCCAUGUGCUCGUCUUAUAACGUACUGUGACGAAAGUCACGGUACG [JL TOV1 3.32] (Eterna round: R97, puzzle: Sensor, turn-off variant 1)", "TARGET OR TEST SYSTEM": "MS2 coat protein", "apparent KD of MS2 coat protein / nM": 253}
{"SEQ STRING": "UUUUUUUUGCGAGGAUAUGCUUUUAGUUAGUUAGCAGAAGGCGCGUUUCUUUUCUCCUCUUCUUACAUGAGGAUCACCCAUGUU [JR_ExcNG1_Sub034] (Eterna round: R96, puzzle: Exclusion NG 1)", "TARGET OR TEST SYSTEM": "MS2 coat protein", "apparent KD of MS2 coat protein / nM": 55.7}
{"SEQ STRING": "GAAACCAGAGGAUAUGCGAAUAAAUAAAACUUUUUUUUUUAACAUGAGGAUCACCCAUGUAGAAGGCUGCAAAG [Ex2 #35] (Eterna round: R97, puzzle: Exclusion 2)", "TARGET OR TEST SYSTEM": "MS2 coat protein", "apparent KD of MS2 coat protein / nM": 32}
{"SEQ STRING": "CACAUUACAAAGGAUAUCUGACCAUGCCCUGGCAGAGAAGGUUGGACAUGAGGAUCACCCAUGUGUAUCCAAGU [Eternabot (Original) Solution 6] (Eterna round: R97, puzzle: Exclusion 6)", "TARGET OR TEST SYSTEM": "MS2 coat protein", "apparent KD of MS2 coat protein / nM": 37.7}
{"SEQ STRING": "UACAUGAGGAUCACCCAUGUUUUGUCGUGUAUGGUAUUUAUCUAGGAUAUCAAGUUAUUAAUUUAUGAGAAGGAGAAUAUUAAU [JMF's solution 32] (Eterna round: R96, puzzle: Exclusion NG 3)", "TARGET OR TEST SYSTEM": "MS2 coat protein", "apparent KD of MS2 coat protein / nM": 43.9}
